assay: activity coefficient (dimensionless); of the first substance listed, at infinite dilution; xn = mol fraction of the nth substance listed; conditions: 348.01 K; 101 kPa; Liquid; Chromatography; x1 = 0
quantity-measured: activity coefficient
// response body must contain only the number

In the examples that follow, each entry is paired with its recorded activity coefficient.
CC(C)=O [acetone] + CCCCCCCCCCCCCCCC(=O)O: 1.42
ClCc1ccccc1 [(chloromethyl)benzene] + CCCCCCCCCCCCCCCC(=O)O: 1.62
COc1ccccc1 [anisole] + CCCCCCCCCCCCCCCC(=O)O: 1.28
CCc1ccccc1 [ethylbenzene] + CCCCCCCCCCCCCCCC(=O)O: 1.05

GET /values?readout=activity coefficient&item= CCC(C)O (stereo not given) [butan-2-ol] + CCCCCCCCCCCCCCCC(=O)O 1.2

====

Let's look at some molecules and their measured activity coefficient.
assay: activity coefficient (dimensionless); of the first substance listed, at infinite dilution; xn = mol fraction of the nth substance listed; settings: 314.1 K; 101 kPa; Liquid; Chromatography; x1 = 0

Solved entries (count: 10):
Cc1ccccc1 [toluene] + CCCCCCCCCCCC(=O)O: 1.06
CCO [ethanol] + CCCCCCCCCCCC(=O)O: 1.92
CC(C)CC(C)(C)C [2,2,4-trimethylpentane] + CCCCCCCCCCCC(=O)O: 1.75
C1CCCCC1 [cyclohexane] + CCCCCCCCCC(=O)O: 1.44
CC(C)=O [acetone] + CCCCCCCCCCCC(=O)O: 1.59
CCCO [propan-1-ol] + CCCCCCCCCCCC(=O)O: 1.76
ClCCCl [1,2-dichloroethane] + CCCCCCCCCC(=O)O: 1.45
ClC(Cl)Cl [trichloromethane] + CCCCCCCCCCCCCC(=O)O: 0.743
ClC(Cl)Cl [trichloromethane] + CCCCCCCCCC(=O)O: 0.823
CCC(C)O (configuration not stated) [butan-2-ol] + CCCCCCCCCCCCCC(=O)O: 1.17

I am curious: what activity coefficient value has been reported for CCCCO [butan-1-ol] + CCCCCCCCCCCCCC(=O)O ? 1.49

Fill in: activity coefficient of CCOC(C)=O [ethyl acetate] + CCCCCCCCCCCC(=O)O is ___ 1.37

Form field: reported activity coefficient of ClC=C(Cl)Cl [trichloroethene] + CCCCCCCCCCCCCC(=O)O 0.847

Can you look up the measured activity coefficient of CC(C)O [propan-2-ol] + CCCCCCCCCCCC(=O)O for me? 1.5

Requested field: activity coefficient. Item: CO [methanol] + CCCCCCCCCCCC(=O)O 1.81

Requested read-out: activity coefficient. Entry: ClCCCl [1,2-dichloroethane] + CCCCCCCCCCCC(=O)O 1.38

// lookup activity coefficient for ClC=C(Cl)Cl [trichloroethene] + CCCCCCCCCC(=O)O 1.05

====

test: activity coefficient (dimensionless); of the first substance listed, at infinite dilution; xn = mol fraction of the nth substance listed; settings: 314.1 K; 101 kPa; Liquid; Chromatography; x1 = 0
quantity-measured: activity coefficient
Enter a number only.

CCO [ethanol] + CCCCCCCCCC(=O)O: 2.12
CCCCCCC [heptane] + CCCCCCCCCCCC(=O)O: 1.65
CC(C)=O [acetone] + CCCCCCCCCC(=O)O: 1.56
Clc1ccccc1 [chlorobenzene] + CCCCCCCCCCCCCC(=O)O: 0.983
CCO [ethanol] + CCCCCCCCCCCCCC(=O)O: 1.82
CC(C)O [propan-2-ol] + CCCCCCCCCC(=O)O: 1.56
ClC=C(Cl)Cl [trichloroethene] + CCCCCCCCCCCC(=O)O: 0.952
CC(C)O [propan-2-ol] + CCCCCCCCCCCCCC(=O)O: 1.39

// moving on: another record for activity coefficient
// returns reported activity coefficient for input CCC(C)O (centres undefined) [butan-2-ol] + CCCCCCCCCC(=O)O 1.33

====

Here the recorded activity coefficient is given for each entry.
assay: activity coefficient (dimensionless); of the first substance listed, at infinite dilution; xn = mol fraction of the nth substance listed; conditions: 353.3 K; 101 kPa; Liquid; Chromatography; x1 = 0
Give the figure by itself; no unit, no explanation.

Completed entries (count: 10):
COc1ccccc1 [anisole] + CCCCCCCCCCCC(=O)O: 1.35
ClC=C(Cl)Cl [trichloroethene] + CCCCCCCCCC(=O)O: 0.969
ClCCCl [1,2-dichloroethane] + CCCCCCCCCC(=O)O: 1.27
Cc1ccccc1 [toluene] + CCCCCCCCCCCC(=O)O: 1.05
CCCCCCC [heptane] + CCCCCCCCCCCCCC(=O)O: 1.4
CCCO [propan-1-ol] + CCCCCCCCCC(=O)O: 1.35
CCO [ethanol] + CCCCCCCCCCCCCC(=O)O: 1.52
C1CCCCC1 [cyclohexane] + CCCCCCCCCC(=O)O: 1.31
ClCc1ccccc1 [(chloromethyl)benzene] + CCCCCCCCCCCCCC(=O)O: 1.55
Cc1ccccc1 [toluene] + CCCCCCCCCC(=O)O: 1.16

Fill in the blank: the reported activity coefficient of CO [methanol] + CCCCCCCCCCCCCC(=O)O is ____. 1.56

Returns the measured activity coefficient for the input molecule. Input: CCOC(C)=O [ethyl acetate] + CCCCCCCCCCCC(=O)O 1.21

// lookup activity coefficient for CCO [ethanol] + CCCCCCCCCCCC(=O)O 1.57

# query: activity coefficient of entry CCOC(C)=O [ethyl acetate] + CCCCCCCCCCCCCC(=O)O 1.12

Entry under review: ClC(Cl)Cl [trichloromethane] + CCCCCCCCCC(=O)O . Reported activity coefficient? 0.825

====

experiment: activity coefficient (dimensionless); of the first substance listed, at infinite dilution; xn = mol fraction of the nth substance listed; settings: 314.24 K; 101 kPa; Liquid; Chromatography; x1 = 0
List of activity coefficient values.
Could you respond with only the numeric value?

For the molecule CCCCCCC [heptane] + CCCCCCCCCC(=O)O , what activity coefficient is on record? 1.9

// lookup activity coefficient for CCCCO [butan-1-ol] + CCCCCCCCCCCC(=O)O 1.7

Looking for the measured activity coefficient of CCCCCCC [heptane] + CCCCCCCCCCCC(=O)O , can you help? 1.67

Which activity coefficient is listed for CCO [ethanol] + CCCCCCCCCCCC(=O)O ? 2.02

Given CC(C)CC(C)(C)C [2,2,4-trimethylpentane] + CCCCCCCCCC(=O)O , state its recorded activity coefficient. 1.98

Fill in the blank: the reported activity coefficient of ClCCCl [1,2-dichloroethane] + CCCCCCCCCC(=O)O is ____. 1.5

Looking for the measured activity coefficient of C1CCCCC1 [cyclohexane] + CCCCCCCCCCCCCC(=O)O , can you help? 1.09

====

# key: entry, value: activity coefficient
assay: activity coefficient (dimensionless); of the first substance listed, at infinite dilution; xn = mol fraction of the nth substance listed; settings: 340.19 K; 101 kPa; Liquid; Chromatography; x1 = 0
Answer as a number with no unit attached.

Please review the following examples before continuing.
CC(C)CC(C)(C)C [2,2,4-trimethylpentane] + CCCCCCCCCCCCCCCC(=O)O: 1.5
CCOC(C)=O [ethyl acetate] + CCCCCCCCCCCCCCCC(=O)O: 1.28

Name the reported activity coefficient value associated with the molecule COc1ccccc1 [anisole] + CCCCCCCCCCCCCCCC(=O)O 1.3

I have this molecule here, Cc1ccccc1 [toluene] + CCCCCCCCCCCCCCCC(=O)O , and I need its recorded activity coefficient. 0.934

====

activity coefficient reference
assay: activity coefficient (dimensionless); of the first substance listed, at infinite dilution; xn = mol fraction of the nth substance listed; details: 333.26 K; 101 kPa; Liquid; Chromatography; x1 = 0
Answer with the value's number alone.

# count of solved cases: 3
CC(C)=O [acetone] + CCCCCCCCCCCCCC(=O)O: 1.36
ClCCCl [1,2-dichloroethane] + CCCCCCCCCCCCCC(=O)O: 1.2
ClC=C(Cl)Cl [trichloroethene] + CCCCCCCCCCCC(=O)O: 0.944

For the next question, use this compound.
Look up activity coefficient: CCCCCC [hexane] + CCCCCCCCCC(=O)O 1.73

====

# key: entry, value: activity coefficient
experiment: activity coefficient (dimensionless); of the first substance listed, at infinite dilution; xn = mol fraction of the nth substance listed; conditions: 314.1 K; 101 kPa; Liquid; Chromatography; x1 = 0
// no unit string in output, number only

Example entries begin here.
C1CCCCC1 [cyclohexane] + CCCCCCCCCCCC(=O)O: 1.29
CCOC(C)=O [ethyl acetate] + CCCCCCCCCCCCCC(=O)O: 1.24
CCCO [propan-1-ol] + CCCCCCCCCCCCCC(=O)O: 1.61
CC(C)CC(C)(C)C [2,2,4-trimethylpentane] + CCCCCCCCCC(=O)O: 2.02

# context switch: different compound, same activity coefficient
Looking for the measured activity coefficient of CCOC(C)=O [ethyl acetate] + CCCCCCCCCC(=O)O , can you help? 1.33
